Target: MEK1 activated ERK1 (Homo sapiens)
Construct: purchased Millipore (Billerica, Mass.) 14-439-K
Sequence (P27361 whole entry): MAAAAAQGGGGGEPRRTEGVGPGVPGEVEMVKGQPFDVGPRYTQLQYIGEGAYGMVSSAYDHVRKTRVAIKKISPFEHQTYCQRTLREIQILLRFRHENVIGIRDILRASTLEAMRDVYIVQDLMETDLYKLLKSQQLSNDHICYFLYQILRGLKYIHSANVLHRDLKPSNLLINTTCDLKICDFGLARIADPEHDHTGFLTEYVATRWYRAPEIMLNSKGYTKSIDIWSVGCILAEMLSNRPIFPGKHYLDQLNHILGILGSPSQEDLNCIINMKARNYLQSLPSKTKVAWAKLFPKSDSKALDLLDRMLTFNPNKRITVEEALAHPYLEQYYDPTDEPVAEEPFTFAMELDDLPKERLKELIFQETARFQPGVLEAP
Assay: Omnia continuous-read kinase assay for potency against MEK1 activated ERK1
Assay type: biochemical
Conditions: MEK1 activated ERK1, ATP at KM; read-out: ERK1 Omnia WT ATP KM IC50
assay endpoint: IC50

Before answering, review these 3 worked examples.
[
  {
    "compound": "C/C=C/C(=O)Nc1cc(F)ccc1Nc1nc(N[C@@H]2CCC[C@H](C(N)=O)C2)ncc1C(F)(F)F (racemic) [Compound I-6]",
    "IC50": "> 1000 nM"
  },
  {
    "compound": "C=CC(=O)Nc1ccccc1Nc1nc(NC(C)(C)C)ncc1C(F)(F)F [Compound I-82]",
    "IC50": "501 to 999 nM"
  },
  {
    "compound": "C=CC(=O)Nc1cc(C)ccc1Nc1nc(Nc2ccnc(F)c2)ncc1C(F)(F)F [Compound I-288]",
    "IC50": "501 to 999 nM"
  }
]

Please look at the following compound next.
Recorded result, C=CC(=O)Nc1ccccc1Nc1nc(N[C@H]2CCN(S(C)(=O)=O)C2)ncc1C(F)(F)F [Compound I-58] , IC50: 101 to 500 nM

* * *

System: A375 cells (malignant melanoma)
Experiment: Inhibition of cancer cell proliferation, A375 (CellTiterGlo, 72 hours)
Format: cell-based
Details: Homo sapiens, A-375
assay endpoint: GI50

Hey, A375 cells (malignant melanoma) data for C=CC(=O)Nc1ccccc1Nc1nc(Nc2cc(C(=O)NCCO)c(F)cc2C)ncc1Cl : GI50 came out at 0.101 to 0.5 µM

Bench note, A375 cells (malignant melanoma): entry C=CC(=O)Nc1ccccc1Nc1nc(N[C@H]2CCCN(C(=O)[C@@H](C)O)C2)ncc1Cl , its GI50 = < 0.1 µM

Entry C=CC(=O)Nc1cc(C)ccc1Nc1nc(Nc2cc(OCCO)ncc2C)ncc1C(F)(F)F , A375 cells (malignant melanoma) data, GI50 value: 0.101 to 0.5 µM

Considering C=C(C)S(=O)(=O)Nc1cc(C)ccc1Nc1nc(N[C@H]2CCCN(C(=O)CO)C2)ncc1C(F)(F)F , its GI50 with A375 cells (malignant melanoma) was recorded as < 0.1 µM

* * *

Test system: ERK1/2 phosphorylation of p90RSK in HCT116 cells
Assay: Detection of total and phospho-RSK by MSD ELISA (HCT116)
Type: cell-based
Conditions: Homo sapiens, HCT-116, read-out: ERK1/ERK2 PRSK HCT116 EC50
Method: Detection of Total and Phospho-RSK by MSD ELISA (HCT116) The protocol below describes an assay to measure the kinase activity of ERK1/2 to phosphorylate a substrate, p90RSK, in the presence or absence of a test compound. HCT116 cells were grown in RPMI/10% FBS. […] The plate was incubated for 1 hr at room temperature on a shaker, followed by three washes. […] Next, 150 uL/well 1×MSD Read buffer was added and the plate was analyzed by the MSD reader.
assay endpoint: EC50

[
  {
    "compound": "C=CC(=O)Nc1cc(C)ccc1Nc1nc(Nc2cc(OC)ncc2C)ncc1C(F)(F)F [Compound I-90]",
    "EC50": "101 to 500 nM"
  },
  {
    "compound": "C=CC(=O)Nc1cc(OC)ccc1Nc1nc(Nc2cc(OC)ncc2C)ncc1Cl [Compound I-242]",
    "EC50": "> 1000 nM"
  },
  {
    "compound": "C=CC(=O)Nc1cc(C)ccc1Nc1nc(Nc2cc(C(=O)OC)nn2C)ncc1C(F)(F)F [Compound I-418]",
    "EC50": "101 to 500 nM"
  }
]

Entry C=CC(=O)Nc1cc(CN2CCN(C(=O)c3ccccn3)CC2)ccc1Nc1nc(Nc2cc(OC)ncc2C)ncc1C(F)(F)F [Compound I-388] — recorded EC50 = < 100 nM

Just so you know, measured EC50 for C=CC(=O)Nc1ccccc1Nc1nc(Nc2cc(OC)nc(N3CCCC3)c2)ncc1C(F)(F)F [Compound I-281] came out at < 100 nM

Record summary for C=CC(=O)Nc1cc(C)ccc1Nc1nc(Nc2nc(OC)ccc2Cl)ncc1C(F)(F)F [Compound I-360] : reported EC50 = 501 to 999 nM

get_value(item= C=CC(=O)Nc1ccccc1Nc1nc(Nc2cc(N[C@H]3CC[C@@H](O)CC3)nc(OC)c2)ncc1C(F)(F)F [Compound I-292] , readout=EC50) returns < 100 nM
